protocol-description: Steady-state galunisertib plasma pharmacokinetics
Format: in vivo, human
study-conditions: human, plasma, oral, AUC(0-tau), geometric mean (CV %), steady state; tau=24 hours; galunisertib 50 mg one time per day + durvalumab 1500 mg Q4W
measured-endpoint: AUC
Answer format: value, then unit.

Entry Cc1cccc(-c2nn3c(c2-c2ccnc4ccc(C(N)=O)cc24)CCC3)n1 , AUC reported as 1630 ng·h/mL

* * *

protocol-description: Steady-state galunisertib plasma pharmacokinetics
Format: in vivo, human
study-conditions: human, plasma, oral, AUC(0-tau), geometric mean (CV %), steady state; tau=12 hours; galunisertib 80 mg two times per day + durvalumab 1500 mg Q4W
measured-endpoint: AUC (ng·h/mL)
Give bare numbers, in ng·h/mL.

Entry Cc1cccc(-c2nn3c(c2-c2ccnc4ccc(C(N)=O)cc24)CCC3)n1 , AUC reported as 3150

* * *

protocol-description: Steady-state galunisertib plasma pharmacokinetics
Type: in vivo, human
study-conditions: human, plasma, oral, Cmax, geometric mean (CV %), steady state; galunisertib 80 mg two times per day + durvalumab 1500 mg Q4W
measured-endpoint: Cmax
Answer format: value, then unit.

Entry Cc1cccc(-c2nn3c(c2-c2ccnc4ccc(C(N)=O)cc24)CCC3)n1 [Galunisertib, galunisertib] , Cmax reported as 612 ng/mL

* * *

protocol-description: Steady-state galunisertib plasma pharmacokinetics
Assay type: in vivo, human
study-conditions: human, plasma, oral, Cmax, geometric mean (CV %), steady state; galunisertib 50 mg one time per day + durvalumab 1500 mg Q4W
measured-endpoint: Cmax (µg/mL)
Answers are plain numbers, in µg/mL.

Entry Cc1cccc(-c2nn3c(c2-c2ccnc4ccc(C(N)=O)cc24)CCC3)n1 , Cmax reported as 0.424

Value source: paper PMC7944986
